Each recorded value in this set is attributed to PubChem BioAssay (NCI).

# Test system: RPMI-8226 leukemia
# run description: NCI-60 one-dose screen, 48 h (100 = growth as untreated, 0 = no growth, -100 = all killed)
# assay conditions: 10 µM unless noted
Compounds without any hit were thinned out: in the full panel of roughly 83,000, 20% have a hit.
Please note: growth exactly at 80% is n. Only values below 80% get y.

CS(=O)(=O)c1ccc(-c2nc3ccccc3n2CC(=O)N/N=C/c2ccccc2)cc1 = n

Report whether reported growth is lower than 80% (strictly) for "COC(=O)Cn1c2c(c3c(OC)cccc31)C(=O)c1ccccc1-2" n

* * *

# Test system: SNB-75 CNS
# run description: NCI-60 one-dose screen, 48 h (100 = growth as untreated, 0 = no growth, -100 = all killed)
# assay conditions: 10 µM unless noted
The panel holds about 83,000 compounds, 20% with a hit somewhere; the sample as a whole holds those more often.
observable: growth (%)
Return type: number; implicit unit %.

Report measured growth on SNB-75 CNS; entry: "N#Cc1c(-c2ccc(Cl)cc2)nc(NN=Cc2ccc[nH]2)nc1N1CCOCC1" -13.5

Report measured growth on SNB-75 CNS; entry: "Fc1ccc(/C=C/[C@@H]2C[C@@H](F)CCO2)cc1" 99.3

Report measured growth on SNB-75 CNS; entry: "COc1cc2c3c(c4c5ccccc5[nH]c4c2c(OC)c1OC)C(=O)N(CCN1CCCCC1)C3=O" 63.5

Report measured growth on SNB-75 CNS; entry: "Cn1c(=O)c2[nH]c(SC/C(=N/O)c3ccc(Br)cc3)nc2n(C)c1=O" -27.2

* * *

# Tested on: BT-549 breast
# run description: NCI-60 one-dose screen, 48 h (100 = growth as untreated, 0 = no growth, -100 = all killed)
# assay conditions: 10 µM unless noted
Compounds without any hit were thinned out: in the full panel of roughly 83,000, 20% have a hit.
observable: growth (%)
Return type: number; implicit unit %.

c1ccc2cc(Cn3cc(CSc4nc5ccccc5s4)nn3)ccc2c1 = 96.3

Tell me its growth given "O=C(CCCCCCCC(=O)N1CCCCC1)N1CCCCC1" as the entry. 96.4

Tell me its growth given "N#Cc1ccccc1-c1ccc(CN2C(=O)S/C(=C\c3ccc(Br)cc3)C2=O)cc1" as the entry. 95.9

Tell me its growth given "COc1ccc(/C=C(/C(=O)N2CCNCC2)c2cc(OC)c(OC)c(OC)c2)cc1O" as the entry. 58.5

Tell me its growth given COc1ccc(C2C3=C(COC3=O)N(CCO)c3cc4c(cc32)OCO4)cc1OC (centres undefined) as the entry. 80.5

* * *

We begin with a simple list: items and their reported growth.
# System: SNB-75 CNS
# run description: NCI-60 one-dose screen, 48 h (100 = growth as untreated, 0 = no growth, -100 = all killed)
# assay conditions: 10 µM unless noted
Compounds without any hit were thinned out: in the full panel of roughly 83,000, 20% have a hit.
Return type: number; implicit unit %.

CCN(CC)C(=O)CC1=C(C)/C(=C/c2[nH]c(-c3ccc[nH]3)cc2OC)N=C1C = 14.2
O=C1CCCCN1c1ccc(C2=NCCCN2)cc1 = 55
CN(C)C1CN(C(=O)c2cc(-c3ccc4ncnc(N5CCc6cc(F)c(Cl)cc65)c4c3)cnc2N)C1 = -27
Clc1ccc(-c2cc(-c3ccccc3)nc(N3CCN(CCCNc4ccnc5cc(Cl)ccc45)CC3)n2)cc1 = -23.9
Cc1oc(-c2ccc(Cl)cc2)nc1C1=NN(C(=O)c2ccncc2)C(c2ccccc2)C1 (centres undefined) = 92.8
C#CCOc1cccc(Nc2ncnc3cc(NC(=O)CCl)ccc23)c1 = -49.9
COc1ccc(N=C2NN=C(c3c[nH]c4ccccc34)CS2)cc1OC = 42.2
CSc1ccc(N2C(=N)C(=S)N(c3ccc(C)cc3)C2=O)cc1 = 89.9
C=C(C)[C@@H]1CC[C@]2(CO)CC[C@]3(C)[C@H](CC[C@@H]4[C@@](C)(CCCN)[C@H](C(=C)C)CC[C@]43C)[C@@H]12 = -91.9
O=C(/C=C/C12c3ccccc3C(c3ccccc31)C1C(=O)NC(=O)C12)c1ccc(Cl)cc1Cl (centres undefined) = 25.1

Tell me its growth given "N#Cc1c(-c2cccc(Cl)c2)cc(-c2cccnc2)[nH]c1=O" as the entry. 61.1

Tell me its growth given "COc1ccc(Oc2ccc(/C=C/C(=O)c3cc4ccccc4oc3=O)cc2)cc1" as the entry. 50.2

Tell me its growth given "COCCn1cc(-c2csc(-c3c[nH]c4ccccc34)n2)c2cccnc21" as the entry. 20.5

Tell me its growth given "CC(C)c1ccc2c(c1)CC[C@H]1[C@](C)(C(=O)OCC#CCN3CCCC3)CCC[C@]21C" as the entry. 88.6

Tell me its growth given "Oc1ccc(-c2nc3ccc4[nH]ncc4c3c3c2CCCC3)c(F)c1" as the entry. 17

Tell me its growth given "CSc1nc(-c2ccco2)c(C#N)c(=O)n1C" as the entry. 89.3

Tell me its growth given "COc1ccc2c(c1)c(-c1nc(-c3ccc4ccccc4c3)cs1)cn2C" as the entry. 109

Tell me its growth given "CN(C)CCCNC(=O)c1cncnc1Nc1ccc2c(ccn2Cc2cccc(F)c2)c1" as the entry. 78

Tell me its growth given "Cc1ncc(C(=O)Nc2ccc(CN3CCN(C)CC3)c(C(F)(F)F)c2)cc1C#Cc1cnc(N)c2ccc(C#N)cc12" as the entry. -11.5

Tell me its growth given "CCOc1ccc(NC(=O)Nc2ccc(OCC)cc2)cc1" as the entry. 106

Tell me its growth given "C=C1C(=O)O[C@H]2[C@H]1CC/C(COC(=O)NCc1ccc(Cn3c(=O)sn(-c4ccccc4)c3=O)cc1)=C\CC[C@@]1(C)O[C@@H]21" as the entry. 9.33

Tell me its growth given "COc1cc(/C=N/NC(=O)c2ccc(-n3cc(-c4ccccc4)nn3)cc2)cc(OC)c1OC" as the entry. 71.6

* * *

# Test system: HCC-2998 colon
# run description: NCI-60 one-dose screen, 48 h (100 = growth as untreated, 0 = no growth, -100 = all killed)
# assay conditions: 10 µM unless noted
Compounds without any hit were thinned out: in the full panel of roughly 83,000, 20% have a hit.
Everything with growth lower than -70% is not met; everything else, including exactly -70%, is met.

Sample answers from the record:
CCN(CC)C(=O)C1=C(C)NC(=O)NC1c1ccc2c(c1)OCO2 (stereo not given) = met
CCn1cc(C(=O)N/N=C/c2ccccc2)c(=O)c2cc(F)c(N3CCNC(C)C3)c(F)c21 (stereo not given) = not met
CC(C)Cc1nc(Nc2ccccc2)[nH]c(=O)c1C#N = met
C=CCN=c1sc(-c2ccc3ccccc3c2)cn1NC(=O)c1cc2ccc1CCc1ccc(cc1)CC2 = met

Does the compound "Clc1ccc(-c2cc(-c3ccccc3)nc(N3CCN(CCCNc4ccnc5cc(Cl)ccc45)CC3)n2)cc1" have recorded growth that is -70% or more? not met

* * *

# Tested on: MCF7 breast
# run description: NCI-60 one-dose screen, 48 h
# assay conditions: 10 µM unless noted
About 83,000 compounds went through this panel and 20% of them were active in at least one assay; those are over-represented in the sample as a whole. Activity calls are given as the source filed them. Rule for the calls: active = growth percent below 10; inactive = the rest.
Tick one outcome: active, inactive

Cc1sc2nc(NCCN)[nH]c(=O)c2c1C = inactive
CN1CC(c2ccc(Br)cc2)C(C(=O)c2ccc(Br)cc2)C12C(=O)Nc1ccccc12 (stereo not given) = inactive
CC(C)c1ccc2c(c1)CC[C@H]1[C@](C)(C(=O)OCC#CCN3CCCC3)CCC[C@]21C = inactive
COc1cc(O)c2c(=O)c3c(CC=C(C)C)cc(OC)c(O)c3oc2c1 = inactive

How did this test come out for "CN(C)C1CN(C(=O)c2cc(-c3ccc4ncnc(N5CCc6cc(F)c(Cl)cc65)c4c3)cnc2N)C1" ? active

* * *

We begin with a simple list: items and their reported growth.
# Tested on: UACC-257 melanoma
# run description: NCI-60 one-dose screen, 48 h (100 = growth as untreated, 0 = no growth, -100 = all killed)
# assay conditions: 10 µM unless noted
# Description: Cells are grown in 96 well plates and exposed to the test compound for 48 hours. Compounds are tested at a single concentration, which is 10^-5 M for most compounds. The reported endpoint is percent growth (GI% or GIPRCNT), where numbers from 0 - 100% represent growth inhibition, and numbers from -100% - 0 represent cell death. For example, a value of 40 represents 60% growth inhibition. A value of 0 means no net growth occurred over the course of the experiment. […]
About 83,000 compounds went through this panel and 20% of them were active in at least one assay; those are over-represented in the sample as a whole. Calls of active or inactive are those of the source. The calls were made as follows: active = growth percent below 10; inactive = the rest.

C1CCC(N2CN3c4nonc4N4CN(C5CCCCC5)CN5c6nonc6N(C2)C3C45)CC1 (stereo unspecified) = 99.2% (inactive)

Tell me its growth given CCNC(=O)N1CCc2c(Br)c3c(c(OC)c2C1Cc1ccc(OC)cc1)OCO3 (stereo unspecified) as the entry. 65.4% (inactive)

Tell me its growth given "O=C(Nc1ccccc1O)c1ccc(CNc2ccnc(C(F)(F)F)c2)cc1" as the entry. 46.4% (inactive)

Tell me its growth given "O=c1oc2ccccc2cc1-c1nn(-c2ccccc2)cc1-c1nn[nH]n1" as the entry. 100% (inactive)

Tell me its growth given CC1SC(c2ccccc2O)N(NC(=O)CCC(=O)c2nc3ncccc3[nH]2)C1=O (stereo unspecified) as the entry. 99.4% (inactive)

Tell me its growth given "CC(C)c1ccc2c(c1)CC[C@H]1[C@](C)(C(=O)OCC#CCN3CCCC3)CCC[C@]21C" as the entry. 82.4% (inactive)

Tell me its growth given "CNCCCNc1nc2ccccc2c2c(=O)c3cc(Cl)ccc3sc12" as the entry. 92.8% (inactive)

Tell me its growth given "Oc1c(I)cc(I)cc1CN(Cc1ccccn1)Cc1ccccn1" as the entry. 1.45% (active)

Tell me its growth given "COC12C=C/C(=C(/C(=O)OCCSc3ccnn3C)C(=O)CCCCCCCCC3(OC)C=C/C(=C(/C(=O)OCCSc4ccnn4C)C(=O)CCCCCCCC1)O3)O2" as the entry. 40.3% (inactive)

Tell me its growth given "Cc1[nH]n(-c2cccc(Cl)c2)c(=O)c1/C=C1\C=c2ccccc2=CC1=O" as the entry. 80% (inactive)

Tell me its growth given "O=C1C=C(SCCO)C(=O)c2ccccc21" as the entry. 66.7% (inactive)
